# target.of.assay: CSF1R (Homo sapiens)
# Sequence (P07333 20-972): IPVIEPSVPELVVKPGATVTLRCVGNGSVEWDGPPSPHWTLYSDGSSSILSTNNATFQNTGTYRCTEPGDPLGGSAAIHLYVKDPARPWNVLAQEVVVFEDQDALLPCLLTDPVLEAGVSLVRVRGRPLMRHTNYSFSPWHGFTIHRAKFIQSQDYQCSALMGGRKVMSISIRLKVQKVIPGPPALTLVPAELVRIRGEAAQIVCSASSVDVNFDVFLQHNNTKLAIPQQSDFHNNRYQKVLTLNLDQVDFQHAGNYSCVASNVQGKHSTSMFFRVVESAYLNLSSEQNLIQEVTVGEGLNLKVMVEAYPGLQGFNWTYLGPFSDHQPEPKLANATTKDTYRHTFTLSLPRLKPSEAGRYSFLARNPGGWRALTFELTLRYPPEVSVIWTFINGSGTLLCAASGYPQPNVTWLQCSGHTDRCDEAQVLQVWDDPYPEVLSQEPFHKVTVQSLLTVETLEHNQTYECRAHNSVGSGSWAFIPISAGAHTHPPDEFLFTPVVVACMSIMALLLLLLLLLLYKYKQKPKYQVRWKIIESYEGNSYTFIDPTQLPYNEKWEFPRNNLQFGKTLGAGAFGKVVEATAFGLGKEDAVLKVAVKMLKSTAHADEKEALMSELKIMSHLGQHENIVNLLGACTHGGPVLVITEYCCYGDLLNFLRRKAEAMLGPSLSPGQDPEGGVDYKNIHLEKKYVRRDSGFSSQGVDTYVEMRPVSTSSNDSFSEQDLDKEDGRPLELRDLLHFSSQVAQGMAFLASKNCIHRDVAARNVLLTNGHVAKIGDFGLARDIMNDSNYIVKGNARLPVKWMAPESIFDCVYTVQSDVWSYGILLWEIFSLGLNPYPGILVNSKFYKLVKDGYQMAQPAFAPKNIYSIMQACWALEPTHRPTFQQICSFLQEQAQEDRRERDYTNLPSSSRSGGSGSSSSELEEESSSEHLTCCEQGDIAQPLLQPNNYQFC
# method.description: CSF1R enzymatic IC50, Z-LYTE assay platform
# Format: biochemical
# study.conditions: Z-LYTE, 10-point titrations in duplicates, ATP equal to KM ca. 10 µM; read-out: CSF1R enz. IC50
metric: IC50 (nM)

[A] Cc1ccc(Cn2cc(-c3cc4c(N(C)CC5CCOCC5)ncnc4[nH]3)nn2)cc1 [Compound 25b]
[B] Cc1cccc(CN(C)c2ncnc3[nH]c(-c4cn(Cc5cccnc5)nn4)cc23)c1 [Compound 27a]
Parameter metric = IC50. Return the lower-valued option from A and B . Which one? Tell me its label.
B

---

# method.description: Mouse plasma protein binding
# Type: in vitro ADME
# study.conditions: fraction bound, read-out: PPB (converted)
metric: fraction unbound

molecule | measured.value
COc1ccc(-n2cc(-c3cc4c(N(C)CC5CCOCC5)ncnc4[nH]3)nn2)cc1 [Compound 21b] | 0.24

[a] CN(CC1CCOCC1)c1ncnc2[nH]c(-c3ccc(N)cc3)cc12 [Structure IV, reference compound]
[b] Cc1ccc(Cn2cc(-c3cc4c(N(C)CC5CCOCC5)ncnc4[nH]3)nn2)cc1 [Compound 25b]
Parameter metric = fraction unbound. Return the lower-valued option from a and b . Which one? Tell me its label.
b
